Give Activity in antigenic peptide prepulse assay, E^d (baseline without AE peptide = 1.00) for every item shown.
tested_system: murine E^d MHC class II allele (Mus musculus, UniProt P01904+P01915)
Sequence (P01904 26-255): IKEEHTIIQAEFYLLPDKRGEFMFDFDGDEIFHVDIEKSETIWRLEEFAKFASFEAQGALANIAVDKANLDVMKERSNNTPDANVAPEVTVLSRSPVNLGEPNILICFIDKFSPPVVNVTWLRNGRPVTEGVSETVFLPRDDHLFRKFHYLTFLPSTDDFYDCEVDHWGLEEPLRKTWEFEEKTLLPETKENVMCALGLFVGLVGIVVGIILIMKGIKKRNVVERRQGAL
Sequence (P01915 27-264 limits assumed): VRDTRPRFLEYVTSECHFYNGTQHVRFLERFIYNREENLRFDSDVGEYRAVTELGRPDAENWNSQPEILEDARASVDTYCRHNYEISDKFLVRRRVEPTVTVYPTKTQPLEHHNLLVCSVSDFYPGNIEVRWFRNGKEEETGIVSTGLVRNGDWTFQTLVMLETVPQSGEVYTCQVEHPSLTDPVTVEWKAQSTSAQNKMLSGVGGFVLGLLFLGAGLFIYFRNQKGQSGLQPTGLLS
assay_protocol: antigenic peptide prepulse assay, E^d allele (fixed APC prepulsed with HEL106-116)
Assay type: cell-based
Parameters: The A20 and CH27 B cell lymphoma lines express H-2^d and H-2^k alleles, respectively; endogenous in cells; host or cells: A20 B cell lymphoma (mitomycin C-treated or paraformaldehyde-fixed)
experimental_conditions: Table 19; AE peptide 64 μM; prepulse 12 μM HEL106-116; supernatant 1:4
Method: In a second type of assay, the “peptide prepulse assay”, the antigenic peptide is incubated with paraformaldehyde-fixed APC for 6 h. The APC are washed and incubated for 24 h with the AE101 series homolog and the T cell hybridoma specific for the antigenic peptide. […] Antigenic peptide-specific T cell activation was measured by the following procedure. […]
Number only, please.

stdin: # return recorded Activity in antigenic peptide prepulse assay, E^d (baseline without AE peptide = 1.00) for entry Ac-YRMKLPK-NH2 [AE113]
stdout: 0.10

stdin: Dear colleague, please send me the reported Activity in antigenic peptide prepulse assay, E^d (baseline without AE peptide = 1.00) for Ac-LRMKLPKPPP-NH2 [AE167] when you can.
stdout: 0.23

stdin: Report Activity in antigenic peptide prepulse assay, E^d (baseline without AE peptide = 1.00) for Ac-YRMKLPKSAK-NH2 [AE109]
stdout: 0.11

stdin: Tell me Activity in antigenic peptide prepulse assay, E^d (baseline without AE peptide = 1.00) reported for Ac-YRMKLP-NH2 [AE115]
stdout: 0.49

stdin: Check the records and state Activity in antigenic peptide prepulse assay, E^d (baseline without AE peptide = 1.00) for Ac-LRMKLPKPPK-NH2 [AE168]
stdout: 0.10
